B1: HDV Ribozyme (parent)
chain: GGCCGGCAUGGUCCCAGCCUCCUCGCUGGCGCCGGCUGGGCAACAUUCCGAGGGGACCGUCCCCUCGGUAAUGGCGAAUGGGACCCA

# Variants of: B1
# MEASUREMENT_DESCRIPTION: self-cleavage, relative activity (ratio to wild type); higher = more cleavage; co-transcriptional
Quick rule for you: self-cleavage at 0.6 or higher means rule met, lower means rule not met.

Please review the entries below; each comes with its answer.
{"columns": ["MUTANT", "CLASS_ASSIGNMENT"],
 "data": [
  ["C32U A71U", "rule not met"],
  ["U69G G76U", "rule met"],
  ["G10C C24U", "rule met"],
  ["A70G A87G", "rule met"],
  ["A8G G25U", "rule not met"],
  ["G59U G67A", "rule met"],
  ["A16G C26U", "rule met"],
  ["C44G G52A", "rule met"],
  ["C19A C62U", "rule not met"],
  ["G10C U65C", "rule met"]
]}

Kindly determine if self-cleavage recorded for G2U U46A is above or exactly 0.6.
rule not met

Moving on to the next variant: G52U G82U
rule not met

Moving on to the next variant: G25A C36G
rule not met

Moving on to the next variant: A16G A83G
rule met

Moving on to the next variant: G28A G50A
rule not met

Entry source: the RNAGym collection of RNA variant scans (doi:10.7554/elife.80360)
